Here's a batch of compounds along with measured IC50 for MET kinase (c-MET), kinase domain of human Met (Homo sapiens).

Previously resolved entries follow.
- COMPOUND: "Cc1ccc2nnc(C(C)c3ccc4ncc(Br)cc4c3)n2n1 (stereo not drawn) [compound 119]"
  IC50: "< 100 nM"
- COMPOUND: "Fc1cc2ncccc2c(F)c1Cc1nnc2ccc(Cl)nn12 [compound 111]"
  IC50: "100 to 1000 nM"
- COMPOUND: "Clc1nc2ccc(Cc3nnc4ccc(-c5ccccc5)nn34)cc2s1 [compound 44]"
  IC50: "1000 to 10000 nM"
- COMPOUND: "C[C@@H](c1ccc2ncsc2c1)c1nnc2ccc(-c3cccc(C#N)c3)nn12 [compound 103]"
  IC50: "< 100 nM"
- COMPOUND: "Cc1cc(Cc2nnc3ccc(-c4cnn(C)c4)nn23)cc2cccnc12 [compound 91]"
  IC50: "1000 to 10000 nM"
- COMPOUND: "CC(C)NC(=O)c1ccc(-c2ccc3nnc(Cc4ccc5ncsc5c4)n3n2)cc1F [compound 95]"
  IC50: "< 100 nM"

Assay MET kinase (c-MET), kinase domain of human Met (Homo sapiens), sample FC(F)(F)c1cccc(-c2ccc3nnc(Cc4ccc5ncccc5c4)n3n2)c1 [compound 78] , IC50 read: < 100 nM

Assay MET kinase (c-MET), kinase domain of human Met (Homo sapiens), sample Cn1cc(-c2cnc3cc(F)c(Cc4nnc5cccnn45)c(F)c3c2)cn1 [compound 174] , IC50 read: < 100 nM

Assay MET kinase (c-MET), kinase domain of human Met (Homo sapiens), sample c1ccc(Oc2ccc3nnc(Cc4ccc5ncccc5c4)n3n2)cc1 [compound 8] , IC50 read: 100 to 1000 nM
